Molecular target: T1, human chemokine (C-C motif) receptor 8 (CCR8) (human, UniProt P51685 1-355)
T1 construct: On human peripheral blood lymphocytes / PBMC (native) or on human CCR8 GFP-transfected Ba/F3 cells; also called hCCR8; human CCR8
T1 sequence (P51685 whole entry): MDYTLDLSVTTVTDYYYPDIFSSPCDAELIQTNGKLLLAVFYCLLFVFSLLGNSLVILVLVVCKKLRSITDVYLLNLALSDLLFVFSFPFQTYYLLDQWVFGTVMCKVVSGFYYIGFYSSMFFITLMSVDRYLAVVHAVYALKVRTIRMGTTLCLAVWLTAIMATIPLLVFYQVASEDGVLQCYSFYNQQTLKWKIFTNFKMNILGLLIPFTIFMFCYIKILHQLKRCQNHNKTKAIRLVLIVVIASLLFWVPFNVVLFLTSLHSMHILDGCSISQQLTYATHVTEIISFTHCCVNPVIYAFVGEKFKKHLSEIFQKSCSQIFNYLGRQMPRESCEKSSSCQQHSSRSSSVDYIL
Test: flow cytometry blocking, PBMC CCR8+ CD4+ cells; competitor PE-AB10 (its MFI is read)

binder	MFI
AB14 (antibody, V domains shown, Hybridoma monoclonal; also called antibody 14; clone 14) VH: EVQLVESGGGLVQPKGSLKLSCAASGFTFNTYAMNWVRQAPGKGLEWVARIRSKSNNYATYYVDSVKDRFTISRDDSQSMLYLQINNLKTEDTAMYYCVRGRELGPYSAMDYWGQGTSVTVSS VL: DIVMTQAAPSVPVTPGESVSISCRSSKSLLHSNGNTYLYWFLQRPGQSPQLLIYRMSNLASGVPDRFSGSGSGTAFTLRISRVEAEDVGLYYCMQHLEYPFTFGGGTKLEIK	720
AB3 (antibody, V domains shown, Hybridoma monoclonal; also called antibody 3; clone 3) VH: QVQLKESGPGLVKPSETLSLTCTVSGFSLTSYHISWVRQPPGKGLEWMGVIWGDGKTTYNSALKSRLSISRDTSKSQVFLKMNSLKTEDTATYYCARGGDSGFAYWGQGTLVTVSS VL: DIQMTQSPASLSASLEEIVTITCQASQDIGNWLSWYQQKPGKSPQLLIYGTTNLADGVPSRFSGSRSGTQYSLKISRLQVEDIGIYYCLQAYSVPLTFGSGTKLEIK	1020
AB11 (antibody, V domains shown, Hybridoma monoclonal; also called antibody 11; clone 11) VH: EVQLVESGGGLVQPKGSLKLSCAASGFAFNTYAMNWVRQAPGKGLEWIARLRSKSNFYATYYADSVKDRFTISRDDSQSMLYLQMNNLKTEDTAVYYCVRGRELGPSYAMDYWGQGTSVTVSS VL: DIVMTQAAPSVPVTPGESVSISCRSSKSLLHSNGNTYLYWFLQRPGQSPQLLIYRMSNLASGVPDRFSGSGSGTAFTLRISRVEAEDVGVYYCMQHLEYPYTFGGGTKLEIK	661
AB13 (antibody, V domains shown, Hybridoma monoclonal; also called antibody 13; clone 13) VH: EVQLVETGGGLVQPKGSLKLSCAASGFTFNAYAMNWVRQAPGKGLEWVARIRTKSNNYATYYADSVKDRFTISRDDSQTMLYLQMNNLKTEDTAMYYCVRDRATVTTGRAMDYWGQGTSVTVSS VL: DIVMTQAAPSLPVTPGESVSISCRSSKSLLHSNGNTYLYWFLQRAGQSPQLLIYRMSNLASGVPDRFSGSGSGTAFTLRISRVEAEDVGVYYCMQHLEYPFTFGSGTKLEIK	1380
AB5 (antibody, V domains shown, Hybridoma monoclonal; also called antibody 5; clone 5) VH: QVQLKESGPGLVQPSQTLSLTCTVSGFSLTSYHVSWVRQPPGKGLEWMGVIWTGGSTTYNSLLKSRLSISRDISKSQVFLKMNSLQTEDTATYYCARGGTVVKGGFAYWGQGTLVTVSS VL: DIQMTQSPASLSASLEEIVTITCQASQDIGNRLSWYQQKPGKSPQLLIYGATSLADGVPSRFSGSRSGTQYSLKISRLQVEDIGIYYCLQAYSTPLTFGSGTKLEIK	1080
AB10 (antibody, V domains shown, Hybridoma monoclonal; also called antibody 10; clone 10) VH: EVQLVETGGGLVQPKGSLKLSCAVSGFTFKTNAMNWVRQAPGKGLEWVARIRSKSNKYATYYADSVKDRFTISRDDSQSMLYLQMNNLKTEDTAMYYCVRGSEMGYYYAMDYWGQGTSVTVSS VL: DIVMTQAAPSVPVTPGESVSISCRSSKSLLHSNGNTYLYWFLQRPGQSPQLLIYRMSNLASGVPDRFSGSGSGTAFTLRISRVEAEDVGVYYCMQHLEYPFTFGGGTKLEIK	1340
